Experiment: Cytotoxicity in BALB/c mouse BMDM cells after 72 hrs by Alamar Blue assay
Type: cell-based
Settings: bone marrow-derived macrophages (BMDM cells), read-out: LD50
reported.property: CC50 at 72 h (µM)

[[record]]
compound_structure = "COc1cccc(Cc2noc(-c3ccc(F)cc3OC3CCNCC3)n2)c1"
unit_annotation = "µM"
qualifier_sign = "="
readout_value = 29.5

[[record]]
compound_structure = "Cc1nn(C)c(C)c1Cc1nnc(-c2cc(Cl)ccc2OC2CCNCC2)o1"
unit_annotation = "µM"
qualifier_sign = ">"
readout_value = 90

[[record]]
compound_structure = "COc1cccc(Cc2noc(-c3cc(Cl)ccc3OC3CCNCC3)n2)c1"
unit_annotation = "µM"
qualifier_sign = "="
readout_value = 18

[[record]]
compound_structure = "COc1cccc(Cc2noc(-c3cc(OC)ccc3OC3CCNCC3)n2)c1"
unit_annotation = "µM"
qualifier_sign = "="
readout_value = 27.9


Hello, the source for this data is ChEMBL document CHEMBL3769347, in case you need it.
